# Tested on: Corn plants
# experimental-protocol: Corn in 55-gal lysimeter containers, sub-surface chemigation, deficit water conditions, yield and root architecture
# Format: in vivo
# condition: maximum labeled rate, sub-surface chemigation at V3/V4, deficit water, measured within 2 weeks of harvest by digital imaging
Marks after values point to notes of the source that are not given here.
Property: Relative number of fine roots (% difference from UTC); scope: individual compounds
reported-property: Relative number of fine roots (% difference from UTC)

| compound | measured-result |
| --- | --- |
| CCOC(=O)C1CC(=O)C(=C(O)C2CC2)C(=O)C1 (stereo not shown) | 34.3† % |
| CCCC1COC(Cn2cncn2)(c2ccc(Cl)cc2Cl)O1 (stereo not shown) | 39.4† % |
| CO/C=C(/C(=O)OC)c1ccccc1Oc1cc(Oc2ccccc2C#N)ncn1 | 37.3† % |
| CC(C)(C)[C@@H](O)[C@@H](Cc1ccc(Cl)cc1)n1cncn1 (racemic) | 70.0† % |
